- Experimental target: T1, human CXCR5 (human, UniProt P32302 1-372)
- T1 construct: whole, on cells; also called hu-CHO; CHO-CXCR5 cells
- T1 sequence (looked up): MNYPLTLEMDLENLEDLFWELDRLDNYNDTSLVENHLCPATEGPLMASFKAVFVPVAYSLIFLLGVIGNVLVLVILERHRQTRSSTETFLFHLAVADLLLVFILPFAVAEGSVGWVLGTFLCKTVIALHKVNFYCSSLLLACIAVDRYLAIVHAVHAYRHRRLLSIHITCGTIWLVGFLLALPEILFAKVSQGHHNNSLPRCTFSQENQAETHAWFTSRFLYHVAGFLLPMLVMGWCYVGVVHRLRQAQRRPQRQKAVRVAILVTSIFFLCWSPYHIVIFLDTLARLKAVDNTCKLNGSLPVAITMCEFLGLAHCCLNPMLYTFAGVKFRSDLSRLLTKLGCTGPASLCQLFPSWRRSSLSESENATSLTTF
- Experiment summary: flow cytometry on CHO-CXCR5 cells, IgG titration
Consider the cut-off 10 nM. If the recorded EC50 is strictly smaller, the label is yes; if not, the label is no.

| Binder | Class name |
| --- | --- |
| 11F3 (antibody, V domains shown, tested as human IgG) VH: QVQLVESGGGVVQPGRSLRLYCAASGFIFSSYAIHWVRQAPGKGLEWVAVISYDGSKKYYADSVEGRFTISRDNSKNSLYLQMNSLRVDDTAVYYCAAHRQLGYWGQGTLVTVSS VL: QSVLTQPPSASGSPGQSVTISCTGTSSDVGGYNYVSWYQQHPGKAPKLMIYDVSKRPSGVSNRFSGSKSGNTASLTISGLQAEDEADYYCSSYTSSSTLVFGGGTKLTVL | no |
| 12C1 (antibody, V domains shown, tested as human IgG) VH: EVQLLESGGGLVKPGGSLRLSCAASGFTFNNYAMHWVRQAPGKGLEWLTVISFYGGKQYYADSVKGRFTISRDNSRNTLYLQMNSLRADDTAVYYCARDNGRHFDYWGQGTLVTVSS VL: QPVLTQPASVSGSPGQSITISCTGTSSDVGGYNYVSWYQQHPGKAPKLMIYDVSKRPSGVSNRFSGSKSGNTASLTISGLQAEDEADYYCTSYRSGRTYVFGSGTKVTVL | no |
| 13E4 (antibody, V domains shown, tested as human IgG) VH: QITLKESGGGVVQPGRSLRLSCAASGFTFSSYGMHWVRQAPGKGLEWVAVISYDGSNKYYADSVKGRFTISRDNSKNTLYLQMNSLRAEDTAVYYCANNGWATYPDYWGQGTLVTVSS VL: QPVLTQPASVSGSPGQSITISCTGTSSDVGGYNYVSWYQQHPGKAPKLMIYDVSNRPSGVSNRFSGSKSGNTASLTISGLQAEDEADYYCSSYTSSSTLVFGGGTKLTVL | yes |
| 15H2 (antibody, V domains shown, tested as human IgG; 181/182 '15H2' while the text calls the same pair '15H12'; also called 15H12) VH: EVQLVESGGGVVQPGRSLRLSCAASGFTFSSYAMHWVRQAPGKGLEWVAVISYDGSKKYYADSVKGRFTISRDNSKNTLYLQMNSLRAEDTAVYYCARVGIAAAVGMDVWGQGTTVTVSS VL: DIVMTQTPLSLPVTLGQPASISCRSSQSLVYRDGNTYLNWFQQRPGQSPRRLIYKVSNRDSGVPDRFSGSGSGTDFTLKISRVEAEDVGVYYCMQGTHWPLTFGQGTKVEI | yes |

Values were extracted from patent US20160053014A1.
